Measured values drawn from patent US11447465B2 for this set.

target: Human Factor D (Homo sapiens (Human), UniProt P00746); assay: Human Factor D Assay; type: biochemical; conditions: Table 5; Human Factor D 80 nM, substrate Z-L-Lys-SBzl; read-out: IC50 (Stars)
Sequence (P00746 26-253): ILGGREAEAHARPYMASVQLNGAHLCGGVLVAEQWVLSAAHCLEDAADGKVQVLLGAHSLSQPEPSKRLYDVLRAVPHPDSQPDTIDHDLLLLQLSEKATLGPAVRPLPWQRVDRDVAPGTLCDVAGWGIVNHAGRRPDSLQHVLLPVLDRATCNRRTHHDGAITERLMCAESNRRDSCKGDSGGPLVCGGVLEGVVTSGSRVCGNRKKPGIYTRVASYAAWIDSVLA
pIC50: −log10 of the molar value.
Quick reference for pIC50 among some molecules

MOLECULE: CCOC(=O)/C=C/c1cn(CC(=O)N2C[C@H](F)C[C@H]2C(=O)Nc2cccc(Br)n2)nc1C(N)=O [Compound T-22]
pIC50: 5.00 to 6.00
//
MOLECULE: CC(=O)c1nn(CC(=O)N2[C@H](C(=O)Nc3nc(Br)ccc3C)C[C@@]3(C)C[C@@H]23)c2ccc(NC(=O)C3CCCCC3(F)F)cc12 (stereo partly drawn) [Compound T-9]
pIC50: > 6.00
//
MOLECULE: CC(=O)c1cn(CC(=O)N2[C@H](C(=O)NCc3cccc(Cl)c3F)C[C@@]3(CN4CCN(C)CC4)C[C@@H]23)c2cc(P(=O)(O)O)ccc12 [Compound T-44]
pIC50: > 6.00
